# tested-target: T1, ICAM-1-Fcγ (ICAM-1 residues of 1-480 fused to the Fc of human IgG, R&D Systems) (human, UniProt P05362 28-480)
# T1 construct: range 1-480; Bought (R&D Systems); also called ICAM-1-Fcγ chimera; not shown: Fc of human IgG
# T1 sequence (P05362 28-480 limits assumed, form in doubt): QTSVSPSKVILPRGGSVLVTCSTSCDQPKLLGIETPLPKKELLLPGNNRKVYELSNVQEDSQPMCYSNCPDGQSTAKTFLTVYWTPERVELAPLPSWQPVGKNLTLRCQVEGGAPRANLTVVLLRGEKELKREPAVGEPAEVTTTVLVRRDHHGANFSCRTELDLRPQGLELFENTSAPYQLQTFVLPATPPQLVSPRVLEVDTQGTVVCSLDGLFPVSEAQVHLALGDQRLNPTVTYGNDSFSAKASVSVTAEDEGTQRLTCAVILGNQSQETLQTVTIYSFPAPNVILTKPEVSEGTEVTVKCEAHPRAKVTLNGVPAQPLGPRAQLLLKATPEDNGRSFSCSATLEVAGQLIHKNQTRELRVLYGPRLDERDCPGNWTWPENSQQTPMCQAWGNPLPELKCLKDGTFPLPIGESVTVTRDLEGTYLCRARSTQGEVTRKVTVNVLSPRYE
# assay-overview: SPR (Biacore 3000), I domain injected over ICAM-1-Fcγ-coupled CM5 chip, 10 mM MgCl2
Known koff of a selection of binders
Please give a number only; it is taken to be in s⁻¹.

Answered cases to consult:
| binder | value-unit | koff |
| --- | --- | --- |
| soluble αL I domain double mutant F265S/F292G, Asn-129 to Tyr-307 (receptor) NVDLVFLFDGSMSLQPDEFQKILDFMKDVMKKLSNTSYQFAAVQFSTSYKTEFDFSDYVKWKDPDALLKHVKHMLLLTNTFGAINYVATEVFREELGARPDATKVLIIITDGEATDSGNIDAAKDIIRYIIGIGKHSQTKESQETLHKFASKPASEFVKILDTGEKLKDLFTELQKKIY | s⁻¹ | 0.00015 |
| soluble αL I domain mutant F265S, Asn-129 to Tyr-307 (receptor) NVDLVFLFDGSMSLQPDEFQKILDFMKDVMKKLSNTSYQFAAVQFSTSYKTEFDFSDYVKWKDPDALLKHVKHMLLLTNTFGAINYVATEVFREELGARPDATKVLIIITDGEATDSGNIDAAKDIIRYIIGIGKHSQTKESQETLHKFASKPASEFVKILDTFEKLKDLFTELQKKIY | s⁻¹ | 0.0017 |
| soluble αL I domain mutant F292A, Asn-129 to Tyr-307 (receptor) NVDLVFLFDGSMSLQPDEFQKILDFMKDVMKKLSNTSYQFAAVQFSTSYKTEFDFSDYVKWKDPDALLKHVKHMLLLTNTFGAINYVATEVFREELGARPDATKVLIIITDGEATDSGNIDAAKDIIRYIIGIGKHFQTKESQETLHKFASKPASEFVKILDTAEKLKDLFTELQKKIY | s⁻¹ | 0.19 |

We next turn to a different binder, shown below.
input: Identify koff associated with the binder soluble αL I domain mutant F292G, Asn-129 to Tyr-307 (receptor) NVDLVFLFDGSMSLQPDEFQKILDFMKDVMKKLSNTSYQFAAVQFSTSYKTEFDFSDYVKWKDPDALLKHVKHMLLLTNTFGAINYVATEVFREELGARPDATKVLIIITDGEATDSGNIDAAKDIIRYIIGIGKHFQTKESQETLHKFASKPASEFVKILDTGEKLKDLFTELQKKIY
output: 0.0019
